# assayProtocol: Pharmacokinetic study in mice
# Assay type: in vivo, white BALB/c male mice
# conditions: male, BALB/c, mouse, plasma, oral, 100 mg/kg, 0.50 hours, 100 mg/kg intragastric
quantity: concentration at 0.5 h (ng/mL)
Answers are plain numbers, in ng/mL.

Query :: Given Cc1cc(-c2noc(C(F)(F)F)n2)ccc1OCCCc1cc(C(=O)N(C)C)no1 , state its recorded concentration at 0.5 h.
Result :: 1710

* * *

# assayProtocol: Microsomal stability, human liver microsomes
# Format: in vitro ADME
quantity: microsomal CLint (µL/min/mg)
One number for each entry, in µL/min/mg.

Query :: Given Cc1cc(-c2noc(C(F)(F)F)n2)ccc1OCCCc1cc(C(=O)N(C)C)no1 [Compound 8] , state its recorded microsomal CLint.
Result :: 25.1

meta.source: patent US12583848B2
